The measurements presented in this section are drawn from patent US8791123B2.

Here, each record is paired with measured IC50 data.
- SYSTEM_TESTED: TrkA (histidine-tagged recombinant human TrkA, cytoplasmic domain) (Homo sapiens (Human), UniProt P04629)
- Sequence (P04629 440-796): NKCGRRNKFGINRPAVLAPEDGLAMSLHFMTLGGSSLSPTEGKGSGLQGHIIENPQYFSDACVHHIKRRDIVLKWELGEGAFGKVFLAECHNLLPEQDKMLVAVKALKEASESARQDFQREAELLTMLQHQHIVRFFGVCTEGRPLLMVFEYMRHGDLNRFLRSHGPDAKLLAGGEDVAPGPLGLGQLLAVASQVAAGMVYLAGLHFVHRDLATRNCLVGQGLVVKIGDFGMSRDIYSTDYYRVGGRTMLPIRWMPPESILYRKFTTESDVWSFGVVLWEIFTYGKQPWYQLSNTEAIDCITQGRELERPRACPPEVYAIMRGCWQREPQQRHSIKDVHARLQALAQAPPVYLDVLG
- ASSAY_EXPLANATION: TrkA ELISA Assay
- Assay type: biochemical
- PROTOCOL_CONDITIONS: Table 1; ELISA, 500 μM ATP; read-out: TrkA Enzyme IC50
Number in nM, nothing else.

Examples with answers:
{"COMPOUND": "NC(=O)c1cnn2ccc(N3CCC[C@@H]3c3cc(F)ccc3C(F)(F)F)nc12 [Example 64]", "OUTCOME_MEASURE": "IC50", "READOUT_NUMBER": 1.6}
{"COMPOUND": "O=C(NC1CC1)c1cnn2ccc(N3CCC[C@@H]3c3cc(F)ccc3OCCN3CCOCC3)nc12 [Example 87]", "OUTCOME_MEASURE": "IC50", "READOUT_NUMBER": 16.1}
{"COMPOUND": "Cc1ncc(F)cc1[C@H]1CCCN1c1ccn2ncc(C(=O)NC3(C)CC3)c2n1 [Example 190]", "OUTCOME_MEASURE": "IC50", "READOUT_NUMBER": 2.4}
{"COMPOUND": "C[C@H](O)CNC(=O)c1cnn2ccc(N3CCC[C@@H]3c3cc(F)ccc3F)nc12 [Example 166]", "OUTCOME_MEASURE": "IC50", "READOUT_NUMBER": 2.4}
{"COMPOUND": "COc1ccc(F)cc1[C@H]1CCCN1c1ccn2ncc(C(=O)NC[C@H](O)CO)c2n1 [Example 55]", "OUTCOME_MEASURE": "IC50", "READOUT_NUMBER": 1}

# IC50 (compound: O=C(c1cnn2ccc(N3CCC[C@@H]3c3cncc(F)c3)nc12)N1CC[C@H](O)C1 [Example 128] ) is 2600

For record O=C(c1cnn2ccc(N3CCC[C@@H]3c3cc(F)ccc3F)nc12)N1CC[C@H](O)C1 [Example 18] the listed IC50 is 38.3

// sample COc1ncc(F)cc1[C@H]1CCCN1c1ccn2ncc(C(=O)Nc3cc(C4CC4)n[nH]3)c2n1 [Example 242] , its IC50 was 8.9

Looking up C[C@H](NC(=O)c1cnn2ccc(N3CCC[C@@H]3c3cncc(F)c3)nc12)C(F)(F)F [Example 130] , I found its IC50 recorded as 1.7

Input Cn1cc(F)cc([C@H]2CCCN2c2ccn3ncc(C(=O)NC4CCC4)c3n2)c1=O [Example 230] . Output IC50: 3

Consider Cc1ncc(F)cc1[C@H]1CCCN1c1ccn2ncc(C(=O)N[C@@H]3CCC[C@H]3O)c2n1 [Example 197] . Its measured IC50 is 4.8

// field: IC50; key: Cn1cc(F)cc([C@H]2CCCN2c2ccn3ncc(C(=O)NC(C)(C)C)c3n2)c1=O [Example 226] ; value = 10.5

Quick note, IC50 for Cc1ccc(CNC(=O)c2cnn3ccc(N4CCC[C@@H]4c4cc(F)ccc4F)nc23)o1 [Example 5] landed at 0.95

The recorded IC50 for O=C(NC1CC1)c1cnn2ccc(N3CCC[C@@H]3c3cccc(F)c3)nc12 [Example 37] is 1.65

Query COc1ncc(F)cc1[C@H]1CCCN1c1ccn2ncc(C(=O)NCC(C)(C)O)c2n1 [Example 158] yields IC50 of 9.9
